This collection of values is drawn from patent US20190309074A1.

Reported Fraction2, Before φ by item:
assay: aggregation and purification amounts of deglycosylated antibodies, before and after φ; type: physicochemical; settings: based on 100 ml culture
Answer with the value and then the unit.

Answered cases to consult:
May I ask what Fraction2, Before φ has been recorded for Deglyco-C2: deglycosylated clone 1 IgG; light chain CDR1 TGSSSNIGATAVT (SEQ ID NO: 3) (antibody, V domains shown) VH: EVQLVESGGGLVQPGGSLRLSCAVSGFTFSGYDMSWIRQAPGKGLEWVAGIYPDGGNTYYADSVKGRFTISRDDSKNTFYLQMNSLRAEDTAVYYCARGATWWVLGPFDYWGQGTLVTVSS VL: DIQLTQSPSSLSASVGDRVTITCTGSSSNIGATAVTWYQQKPGKAPKLLIYADSHRPSGVPSRFSGSGSGTDFTLTISSLQPEDFATYYCGAWDDSLSGYVFGQGTKVEIKR ?
3.718 mg

May I ask what Fraction2, Before φ has been recorded for Deglyco-C3: deglycosylated clone 1 IgG; light chain CDR1 TGSSSNIGWSNVT (SEQ ID NO: 4) (antibody, V domains shown) VH: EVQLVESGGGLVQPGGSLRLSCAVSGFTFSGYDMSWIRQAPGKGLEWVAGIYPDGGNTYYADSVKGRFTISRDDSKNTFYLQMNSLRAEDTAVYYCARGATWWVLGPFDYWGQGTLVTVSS VL: DIQLTQSPSSLSASVGDRVTITCTGSSSNIGWSNVTWYQQKPGKAPKLLIYADSHRPSGVPSRFSGSGSGTDFTLTISSLQPEDFATYYCGAWDDSLSGYVFGQGTKVEIKR ?
2.209 mg

May I ask what Fraction2, Before φ has been recorded for Deglyco-C4: deglycosylated clone 1 IgG; light chain CDR1 TGSSSNIGAVVVT (SEQ ID NO: 5) (antibody, V domains shown) VH: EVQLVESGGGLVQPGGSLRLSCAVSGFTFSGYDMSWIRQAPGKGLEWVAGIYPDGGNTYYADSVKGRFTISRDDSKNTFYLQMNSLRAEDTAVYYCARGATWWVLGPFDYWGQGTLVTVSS VL: DIQLTQSPSSLSASVGDRVTITCTGSSSNIGAVVVTWYQQKPGKAPKLLIYADSHRPSGVPSRFSGSGSGTDFTLTISSLQPEDFATYYCGAWDDSLSGYVFGQGTKVEIKR ?
1.135 mg

Next molecule, Fraction2, Before φ to be filled in.
May I ask what Fraction2, Before φ has been recorded for deglyco C1 IgG: deglycosylated clone 1 IgG; light chain CDR1 TGSSSNIGRCGVT (SEQ ID NO: 2), N32R/N33C/S34G (antibody, V domains shown) VH: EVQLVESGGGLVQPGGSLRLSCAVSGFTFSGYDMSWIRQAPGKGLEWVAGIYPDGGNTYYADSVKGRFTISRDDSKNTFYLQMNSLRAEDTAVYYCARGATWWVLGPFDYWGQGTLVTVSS VL: DIQLTQSPSSLSASVGDRVTITCTGSSSNIGRCGVTWYQQKPGKAPKLLIYADSHRPSGVPSRFSGSGSGTDFTLTISSLQPEDFATYYCGAWDDSLSGYVFGQGTKVEIKR ?
3.792 mg
